Cited source for all entries: PubChem BioAssay (NCI)

Kindly supply the reported TGI values for the records listed here.
- System: SNB-19 CNS
- assay_text: NCI tumour cell line growth inhibition, 48 h

// known answers, use as guide
NC(C(=O)O)C(O)c1cnc[nH]1 (stereo not given) | > 100 µM
C#CC[C@]12CC(=O)CC[C@H]1CC1(C2)OCCO1 | > 100 µM

Count: 2. Required value per item: TGI.
1. COc1ccccc1Nc1nc(N)nc(N)c1N
2. CSC(SC)=C1Sc2cccc(Cl)c2S1

[out]
["> 100 µM", "> 100 µM"]

[in] Sample CC1(C)OC2OC(/C=C/[N+](=O)[O-])C3OC(C)(C)OC3C2O1 (stereo not given) — what was its TGI?
[out] 33.5 µM

---

- Test system: OVCAR-3 ovarian
- assay_text: NCI tumour cell line growth inhibition, 48 h
Kindly supply the reported TGI values for the records listed here.

COc1cc(-c2nn(-c3cccc(NC(=O)NCCNC(=O)c4ccccc4)c3)cc2-c2ccncc2)ccc1Cl | > 100 µM
N#CC(NNC(=O)c1ccccc1O)c1ccccc1O (centres undefined) | > 100 µM
N#CCC1CCN(c2nc(Nc3ccc(N4CCC(O)CC4)cc3)c3c(=O)[nH]ncc3n2)CC1 | > 100 µM

Next molecule, TGI to be filled in.
[in] Request - read-out TGI | tested on OVCAR-3 ovarian | molecule C/C(=N\NC(N)=O)C(CN1CCOCC1)C(c1ccccc1)c1c(O)c2ccccc2oc1=O (centres undefined)
[out] > 100 µM

---

- System: CCRF-CEM leukemia
- assay_text: NCI tumour cell line growth inhibition, 48 h
readout_kind: TGI

// known answers, use as guide
NS(=O)(=O)c1ccc(NCc2cccc3c(=O)c4ccc(Cl)cc4oc23)cc1 | > 52.6 µM
COc1cc(F)c(F)c(F)c1C(=O)c1cnc(NC2CCN(S(C)(=O)=O)CC2)nc1N | > 25 µM
CC(=O)OCC1OC(NC(=S)Nn2c(-c3ccccc3)nc3ccccc3c2=O)C(OC(C)=O)C(OC(C)=O)C1OC(C)=O (stereo not given) | > 100 µM
COc1cc(Nc2nc(NS(=O)(=O)c3cc(C)c(Cl)cc3S)n[nH]2)cc(OC)c1OC | > 100 µM

Next compound, TGI to be filled in.
[in] Sample CCCCCCCCCCCCNC(=O)N[C@H](C(=O)N[C@H]1/C=C/OCCNC(=O)/C=C/[C@H](C(C)C)NC1=O)C(C)C — what was its TGI?
[out] > 100 µM

---

Kindly supply the reported TGI values for the records listed here.
- Test system: HCC-2998 colon
- assay_text: NCI tumour cell line growth inhibition, 48 h

// known answers, use as guide
CC(=O)O[C@H]1CC[C@@]2(C)C(=CC[C@@H]3[C@@H]2CC[C@]2(C)C(=O)/C(=C\c4ccccc4)C[C@@H]32)C1 | > 100 µM
Nc1nc(-c2ccccn2)c(-c2ccc3ncccc3n2)s1 | > 25 µM
CC(=O)OC(C(=O)NNC(=O)OC(C)(C)C)c1ccccc1 (stereo not given) | > 100 µM
COC(=O)C(Cc1ccc2c(c1)OCO2)(NC(=O)c1ccccc1)P(=O)(OC)OC (stereo not given) | > 100 µM

Count: 2. Required value per item: TGI.
1. COc1cc(N(CCC#N)CCC#N)ccc1/C(N=Nc1cccc([N+](=O)[O-])c1)=N\NC(=O)c1ccc(C)cc1
2. Fc1cnccc1-c1nc2ccc3[nH]ncc3c2c2c1CCCC2

[out]
1. > 100 µM
2. > 100 µM

---

- Tested on: KM12 colon
- assay_text: NCI tumour cell line growth inhibition, 48 h
readout_kind: TGI

CC[C@H]1CNC(=O)CC1CC(=O)OC (stereo partly drawn) | > 100 µM
COc1cc(/C=C(\C#N)C(=O)c2ccccc2)cc(OC)c1OC | > 100 µM
NS(=O)(=O)c1ccc(NCc2cccc3c(=O)c4ccc(Cl)cc4oc23)cc1 | > 70.7 µM
Cc1c(CNc2ccc(Cl)c(Cl)c2Cl)cnc2nc(N)nc(N)c12 | > 100 µM
O=C(CNC(=O)c1cccc2ccccc12)Nc1ccccc1Oc1ccc(O)cc1 | > 25 µM
CCc1c(N=[N+]=[N-])c2ccccc2oc1=O | > 100 µM
O=C(Nc1cc(Cl)ccc1Cl)c1cc2ccccc2oc1=O | > 100 µM

Next compound, TGI to be filled in.
[in] Sample COc1cc(OC)cc(Oc2nc3ccc(C(F)(F)F)cc3nc2-c2ccccc2)c1 — what was its TGI?
[out] > 100 µM

---

- Test system: HT29 colon
- assay_text: NCI tumour cell line growth inhibition, 48 h
readout_kind: TGI

// known answers, use as guide
O=[N+]([O-])c1cccc(-c2ccc([C@H]3CC(c4ccc(Cl)cc4)=NN3)o2)c1 | 56.9 µM
Cc1nnc(NS(=O)(=O)c2ccc(N=Nc3c(O)c(C(=O)O)cc4ccccc34)cc2)s1 | > 100 µM
Nc1nc(-c2ccccn2)c(-c2ccc3ncccc3n2)s1 | > 25 µM
O=C(NNC(=O)c1cc2ccccc2[nH]1)c1cc2ccccc2[nH]1 | > 100 µM
CCOC(=O)/C(C#N)=c1/s/c(=C(\O)N/N=C/c2ccc(OC)cc2)c(=N)n1-c1ccccc1 | > 100 µM
FC(F)(F)c1ccc2c(c1)nc(Cc1ccc(Cl)cc1)n2CC1CCCN2CCCCC12 (stereo not given) | 11.6 µM

Count: 5. Required value per item: TGI.
1. N#CC1(C2CC(=O)N(c3ccccc3)C2=O)CCCCC1=O (stereo not given)
2. FC(F)(F)c1ccc(-c2cnc(-c3nn[nH]n3)nc2NC2CCCCCC2)cc1
3. O=C(O)CN1CCN2CCOCCN(CC1)CCN(CC(=O)O)CC2
4. COc1ccc(CC(COS(=O)(=O)c2ccc(C)cc2)NS(=O)(=O)c2ccc(C)cc2)cc1 (stereo not given)
5. CCCCP1(=O)C=CC(Cl)=C(C)C1 (stereo not given)

[out]
["> 100 µM", "> 10 µM", "> 100 µM", "> 50.9 µM", "> 100 µM"]

---

- Test system: BT-549 breast
- assay_text: NCI tumour cell line growth inhibition, 48 h
readout_kind: GI50

// known answers, use as guide
Nc1nc(-c2ccccn2)c(-c2ccc3ncccc3n2)s1 | > 25 µM
FC(F)(F)c1ccc(-c2cnc(-c3nn[nH]n3)nc2NC2CCCCCC2)cc1 | > 10 µM
CC1(C)CC[C@]2(C(=O)O)CC[C@]3(C)C(=CC[C@@H]4[C@@]5(C)C/C(=C/c6cccnc6)[C@H](O)C(C)(C)[C@@H]5CC[C@]43C)[C@@H]2C1 | 12.4 µM
CNC(=S)N/N=C/CSC/C=N/NC(=S)NC | > 100 µM
COc1cc(C(=O)N[C@@H]2CCCN(C)C2)ccc1Nc1ncc2c(n1)N(C1CCCC1)CC(C)(C)C(=O)N2C | 0.73 µM

Count: 7. Required value per item: GI50.
1. Cc1nn(-c2ccccc2)c2c1[C@@H](C)[C@H]1CC3(CC4(C)C[C@@H]3C1(C)c1c(C)nn(-c3ccccc3)c1N4C)N2C (stereo not given in full)
2. COc1ccc(-c2cc(-c3ccc(Cl)cc3)c(C#N)c(=O)n2CCCCCC(=O)Nc2ccccc2N)cc1
3. O=c1c2cc(F)ccc2sc2c(NCCCNCCO)nc3ccc(F)cc3c12
4. CC(=O)Nc1ccc(S(=O)(=O)N2C(=O)CCC2C(=O)Nc2ccccc2)cc1 (stereo not given)
5. CCn1nc(C#Cc2c(C)ccc3c(Nc4ccc(Cl)cc4)nccc23)c2c(N)ncnc21
6. C=C1C(=O)O[C@H]2[C@H]1CC/C(COC(=O)NCc1ccc(Cn3c(=O)sn(CCCI)c3=O)cc1)=C\CC[C@@]1(C)O[C@@H]21
7. Cc1cc(C)c(CNC(=O)c2cc(Cl)c3c(c2C)O[C@@](C)(C2CCC(N(C)C)CC2)O3)c(=O)[nH]1 (stereo not given in full)

[out]
["> 100 µM", "4.49 µM", "11.1 µM", "1.57 µM", "5.27 µM", "1.37 µM", "42 µM"]

---

- System: HOP-62 NSCLC
- assay_text: NCI tumour cell line growth inhibition, 48 h
readout_kind: TGI

// known answers, use as guide
C[C@H](O)CCC(=O)c1ccoc1 | > 100 µM
COC(=O)C(Cc1ccc2c(c1)OCO2)(NC(=O)c1ccccc1)P(=O)(OC)OC (stereo not drawn) | > 100 µM

Next compound, TGI to be filled in.
[in] Sample O=C(NC(=Nc1ccccc1)SCCSC(=Nc1ccccc1)NC(=O)c1ccccc1)c1ccccc1 — what was its TGI?
[out] > 100 µM

---

- System: UACC-62 melanoma
- assay_text: NCI tumour cell line growth inhibition, 48 h
Kindly supply the reported TGI values for the records listed here.

O=C(CNC(=O)c1cccc2ccccc12)Nc1ccccc1Oc1ccc(O)cc1 | > 25 µM
CC1(C)OC2OC(/C=C/[N+](=O)[O-])C3OC(C)(C)OC3C2O1 (centres undefined) | 28.6 µM

Count: 2. Required value per item: TGI.
1. O=C1N(c2ccccc2)C2(O)C(=O)c3ccccc3C2(O)N1c1ccccc1 (centres undefined)
2. O=C1OCC2=C1C(c1ccc(Cl)cc1)c1cc3c(cc1O2)OCO3 (centres undefined)

[out]
> 100 µM
> 100 µM
